Source listed as the supplement of paper PMC4166925.

- Tested on: SpTbr T-box DNA-binding domain (GST fusion);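 also: protein at 200 nM in PBS on universal double-stranded arrays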
- Sequence: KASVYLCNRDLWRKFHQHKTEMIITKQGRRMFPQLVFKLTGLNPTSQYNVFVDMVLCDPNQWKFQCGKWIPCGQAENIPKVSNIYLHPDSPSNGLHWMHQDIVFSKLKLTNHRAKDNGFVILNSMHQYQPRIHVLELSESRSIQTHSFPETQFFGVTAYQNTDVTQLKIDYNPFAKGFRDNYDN
- runDescription: PBM E-score of 8-mer (E-score (dimensionless, -0.5 to 0.5)); Tbr is Tbrain of the sea star Patiria miniata (Pm) or the sea urchin Strongylocentrotus purpuratus (Sp); higher = stronger binding preference
- conditionContext: the construct has about 5 more residues each side
Over roughly 33,000 sequences, “E-score (dimensionless, -0.5 to 0.5)” has its median near -0.046; the highest 2% begin near 0.36. What follows is part of a selection rich in the highest values, with near analogues and random picks from the rest.
readoutLabel: PBM E-score of 8-mer
Give bare numbers.

The following sequences have reported results that may help.
AGGCGTGA | 0.475
AACGCAAA | 0.0563

Prompt: Which PBM E-score of 8-mer is listed for `GCGTCGAC` ?
Response: 0.114
